src = patent US20090285798A1

- TESTED_TARGET: Mn pseudovirus envelope (HIV-1, UniProt P05877 32-856)
- Sequence (P05877 32-856): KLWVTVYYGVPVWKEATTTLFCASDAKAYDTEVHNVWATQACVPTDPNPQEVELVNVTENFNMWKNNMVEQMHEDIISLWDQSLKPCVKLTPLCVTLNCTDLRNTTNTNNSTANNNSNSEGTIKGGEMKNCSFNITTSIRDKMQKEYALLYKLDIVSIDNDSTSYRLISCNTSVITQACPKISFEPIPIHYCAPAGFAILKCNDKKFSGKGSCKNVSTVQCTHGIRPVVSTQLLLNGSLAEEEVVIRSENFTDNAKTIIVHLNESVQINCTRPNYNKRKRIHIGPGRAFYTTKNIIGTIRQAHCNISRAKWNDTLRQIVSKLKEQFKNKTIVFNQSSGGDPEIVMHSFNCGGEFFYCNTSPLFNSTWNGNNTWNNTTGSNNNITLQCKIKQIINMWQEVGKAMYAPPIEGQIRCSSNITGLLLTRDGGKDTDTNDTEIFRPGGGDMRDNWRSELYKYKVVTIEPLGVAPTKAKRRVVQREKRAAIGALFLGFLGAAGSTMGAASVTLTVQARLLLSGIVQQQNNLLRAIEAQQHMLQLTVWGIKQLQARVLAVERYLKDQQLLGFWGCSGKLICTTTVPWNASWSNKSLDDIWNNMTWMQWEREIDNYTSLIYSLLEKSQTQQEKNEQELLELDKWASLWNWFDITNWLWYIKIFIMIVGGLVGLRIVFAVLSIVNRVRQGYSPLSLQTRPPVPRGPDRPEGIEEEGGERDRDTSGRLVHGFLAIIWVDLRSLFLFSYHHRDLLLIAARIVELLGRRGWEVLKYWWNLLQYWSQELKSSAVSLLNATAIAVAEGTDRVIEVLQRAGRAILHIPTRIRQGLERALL
- ASSAY_INFO: cell-based or functional assay
MEASUREMENT_LABEL: EC50, single-cycle HIV-1 pseudovirus infection of GHOST cells (luciferase) (nM)

{"BINDER": "XNLHFCQLRCKSLGLLGRCAXTXCACV (not fully specified; N-terminal thiopropionic acid (TPA) at position 1; (D)Pro at 21; biphenylalanine (Bip) at 23; C-terminal amide) [CD4M47]", "UNIT_TEXT": "nM", "VALUE_REPORTED": 1}
{"BINDER": "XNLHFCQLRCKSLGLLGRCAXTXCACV (not fully specified; N-terminal thiopropionic acid (TPA) at position 1; (D)Pro at 21; Phe(para-[phenyl-ethoxy]) (U3) at 23; C-terminal amide) [CD4M48_U3]", "UNIT_TEXT": "nM", "VALUE_REPORTED": 0.13}
{"BINDER": "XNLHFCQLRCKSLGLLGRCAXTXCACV (not fully specified; N-terminal thiopropionic acid (TPA) at position 1; (D)Pro at 21; para-cyclo-pentylethoxyphenylalanine (U2) at 23; C-terminal amide) [CD4M48_U2]", "UNIT_TEXT": "nM", "VALUE_REPORTED": 0.08}
{"BINDER": "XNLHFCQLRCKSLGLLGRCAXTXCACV (not fully specified; N-terminal thiopropionic acid (TPA) at position 1; (D)Pro at 21; para-cyclo-hexylmethoxyphenylalanine (U1) at 23; C-terminal amide) [CD4M48_U1]", "UNIT_TEXT": "nM", "VALUE_REPORTED": 0.07}
{"BINDER": "XNLHFCQLRCKSLGLLGRCAXTFCACV (not fully specified; N-terminal thiopropionic acid (TPA) at position 1; (D)Pro at 21; C-terminal amide, optimized mini-protein, Phe at 23; unlabelled monomer; also called B4T) [CD4M48]", "UNIT_TEXT": "nM", "VALUE_REPORTED": 4}
